Could you please report measured protein stability index for the items listed next?
B1: SFRS1 (parent)
chain: RDIDLKNRRGGPPFAFVEFEDPRD

Variants of: B1
measurementDescription: protein stability index of a GFP-peptide fusion (GPS, HEK-293T) (PSI 1-6); higher = more stable;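 also: lentivirally expressed fusions sorted by FACS into six bins by GFP to DsRed ratio, PSI derived from sequencing read proportions per bin multiplied by bin number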
settings: c terminus: a fixed tail appended
Give bare numbers.

[[record]]
variantdescriptor = "G10L"
experimentalvalue = 3.51

[[record]]
variantdescriptor = "A15R"
experimentalvalue = 2.25

[[record]]
variantdescriptor = "K6F"
experimentalvalue = 3.61

[[record]]
variantdescriptor = "F16K"
experimentalvalue = 4.89

[[record]]
variantdescriptor = "P12Q"
experimentalvalue = 4.17

[[record]]
variantdescriptor = "R9H"
experimentalvalue = 4.21

[[record]]
variantdescriptor = "P22T"
experimentalvalue = 3.99

[[record]]
variantdescriptor = "P22G"
experimentalvalue = 4.03

[[record]]
variantdescriptor = "E20H"
experimentalvalue = 3.21

[[record]]
variantdescriptor = "F19V"
experimentalvalue = 3.03


# map each variant to its protein stability index
1. D2E
2. G10P

1. 4.06
2. 3.73
